Entry source: paper PMC9482650

Assay target: IL16_4, Q14005
Sequence (Q14005 1229-1329): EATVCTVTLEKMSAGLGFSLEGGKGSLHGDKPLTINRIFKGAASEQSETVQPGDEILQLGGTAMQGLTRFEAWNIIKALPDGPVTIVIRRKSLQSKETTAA
Protocol notes: holdup assay
Set-up: key: below the threshold = too weak to quantify, mostly under pKd 3.1 to 4
Assay conditions: plain residues with an end cap or a label only (N-terminal biotin on a linker: ado-ado)
Measured parameter: pKd

{"columns": ["Binder", "Experimental result"],
 "data": [
  ["PDGQCTVTEV [RNF146, Q9NTX7]", "below the threshold"],
  ["PKRSFIESNV [TANC1, Q9C0D5]", "below the threshold"],
  ["LRSPRTPSEV [OR10G3, Q8NGC4]", 3.53],
  ["DDPSTAETVL [ABCA7, Q8IZY2]", "below the threshold"],
  ["QGLAERISVL [PRKD2, Q9BZL6]", 3.71],
  ["VYPNAKVELV [PDLIM4_iso2, P50479]", 3.83],
  ["FNSYSLTGYV [CLDN2, P57739]", "below the threshold"],
  ["SNAGNTATKA [NOSTRIN, Q8IVI9]", "below the threshold"]
]}
